Measurement description: Solubility of TP 5 in solvents by HPLC
Type: physicochemical
Condition info: deionized water, 25 °C, water, thermodynamic from solid; read-out: Solubility
Quantity: solubility (µg/mL)

- Cc1cc2c(s1)C1=NC(=O)OC1(c1ccc(Cl)c(Cl)c1)CC2 (stereo not shown): 26.4

----------
Measurement description: Solubility of TP 5 in solvents by HPLC
Format: physicochemical
Condition info: ethanol, 25 °C, organic solvent or mixture, thermodynamic from solid; read-out: Solubility
Quantity: solubility

* Cc1cc2c(s1)C1=NC(=O)OC1(c1ccc(Cl)c(Cl)c1)CC2 (stereo not shown) | 2480 µg/mL

----------
Measurement description: Solubility of TP 5 in solvents by HPLC
Assay type: physicochemical
Condition info: aqueous buffer, thermodynamic from solid; PBS buffered solution (pH 7.4), 25 °C; read-out: Solubility
Quantity: solubility (µg/mL)

- Cc1cc2c(s1)C1=NC(=O)OC1(c1ccc(Cl)c(Cl)c1)CC2 (stereo not shown) [TP 5]: 27.6
